# target-desc: APOL1 G2 (Homo sapiens, UniProt O14791, DEL388-389/M228I/R255K)
# Sequence (O14791 with tags, fused parts or gaps M228I/R255K/DEL388-389): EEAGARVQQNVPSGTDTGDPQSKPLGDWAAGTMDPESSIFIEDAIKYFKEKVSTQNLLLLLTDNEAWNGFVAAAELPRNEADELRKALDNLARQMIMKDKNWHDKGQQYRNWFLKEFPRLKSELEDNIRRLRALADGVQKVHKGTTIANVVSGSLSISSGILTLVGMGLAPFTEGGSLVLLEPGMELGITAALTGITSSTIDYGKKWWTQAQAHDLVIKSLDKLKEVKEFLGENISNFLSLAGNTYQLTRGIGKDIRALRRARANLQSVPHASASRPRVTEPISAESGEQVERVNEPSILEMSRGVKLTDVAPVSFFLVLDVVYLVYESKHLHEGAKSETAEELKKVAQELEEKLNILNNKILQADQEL
# assay-summary: Automated whole-cell patch clamp
# Assay type: cell-based
quantity: pIC50
One number for each entry, as −log10 of the molar value.

Input line: I would be grateful if you could share the reported pIC50 for `O=C(CCc1c(-c2ccc(F)cc2)[nH]c2c(F)cc(F)cc12)N[C@@H]1C(=O)NC[C@H]1O` .
Output line: 8.96

* * *

# target-desc: recombinant APOL1 G0 (Homo sapiens)
# assay-summary: Trypanosome
quantity: EC50 (nM)
Numbers only, in nM.

Input line: Fill blank: measured EC50 of the molecule `O=C(CCc1c(-c2ccc(F)cc2)[nH]c2c(F)cc(F)cc12)N[C@@H]1C(=O)NC[C@H]1O` is ____.
Output line: 2

* * *

Exercise: for every item that follows, state its recorded half-life.
# assay-summary: Rat pharmacokinetics
# condition-notes: in vivo
Numbers only, in h.

Example results:
molecule-smiles: Cc1cc(F)cc2c(CCC(=O)N[C@H]3CCNC3=O)c(-c3ccc(F)cc3)[nH]c12
half-life (h): 4.1
//
molecule-smiles: Cc1cc(F)cc2c(CCC(=O)N[C@@H]3C(=O)NC[C@H]3O)c(-c3ccc(F)cc3)[nH]c12
half-life (h): 4.2

Moving on to another compound below.
Input line: Reported half-life for `O=C(CCc1c(-c2ccc(F)cc2)[nH]c2c(F)cc(F)cc12)N[C@@H]1C(=O)NC[C@H]1O` : what is it?
Output line: 2.5

* * *

# target-desc: APOL1 G0 (Homo sapiens, UniProt O14791, M228I/R255K)
# Sequence (O14791 28-398 M228I/R255K): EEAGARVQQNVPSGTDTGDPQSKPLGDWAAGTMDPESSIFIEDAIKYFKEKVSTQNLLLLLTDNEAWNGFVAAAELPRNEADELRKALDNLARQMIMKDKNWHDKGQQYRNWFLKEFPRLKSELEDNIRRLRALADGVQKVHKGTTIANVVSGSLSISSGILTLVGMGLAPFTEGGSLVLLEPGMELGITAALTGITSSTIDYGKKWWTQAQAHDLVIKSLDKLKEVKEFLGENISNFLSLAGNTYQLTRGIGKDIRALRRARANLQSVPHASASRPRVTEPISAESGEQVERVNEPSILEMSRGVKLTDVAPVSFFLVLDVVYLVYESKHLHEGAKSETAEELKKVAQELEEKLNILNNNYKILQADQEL
# assay-summary: Automated whole-cell patch clamp
# Format: cell-based
quantity: pIC50
Answers are plain numbers, as −log10 of the molar value.

Input line: Provide value of pIC50 for this record tested with APOL1 G0 (Homo sapiens, UniProt O14791, M228I/R255K): `O=C(CCc1c(-c2ccc(F)cc2)[nH]c2c(F)cc(F)cc12)N[C@@H]1C(=O)NC[C@H]1O`
Output line: 8.64
